Target: Vasopressin V1a receptor (Homo sapiens); note: assay procedure not described here
Sequence (P37288 whole entry): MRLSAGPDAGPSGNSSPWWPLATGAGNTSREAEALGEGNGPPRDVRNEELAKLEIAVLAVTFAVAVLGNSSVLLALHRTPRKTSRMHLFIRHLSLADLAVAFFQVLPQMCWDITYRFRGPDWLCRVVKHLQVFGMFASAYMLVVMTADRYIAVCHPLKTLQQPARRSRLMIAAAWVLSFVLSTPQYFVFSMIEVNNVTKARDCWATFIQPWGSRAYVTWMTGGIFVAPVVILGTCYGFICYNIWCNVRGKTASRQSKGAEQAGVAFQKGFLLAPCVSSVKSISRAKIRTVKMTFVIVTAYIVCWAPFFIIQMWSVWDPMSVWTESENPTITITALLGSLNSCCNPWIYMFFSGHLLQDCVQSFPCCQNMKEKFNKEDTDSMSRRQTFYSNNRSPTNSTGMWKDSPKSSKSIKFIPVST
As shown below, each of these compounds has a reported AC50 value.

Answered examples (3):
| compound | tested.on | AC50 |
| --- | --- | --- |
| CC1=C(/C=C/C(C)=C/C=C/C(C)=C/CO)C(C)(C)CCC1 | Vasopressin V1a receptor (Homo sapiens) | > 10 µM |
| O=C(NCCO[N+](=O)[O-])c1cccnc1 | Vasopressin V1a receptor (Homo sapiens) | > 30 µM |
| CN(C)Cc1nnc2n1-c1ccc(Cl)cc1C(c1ccccc1)=NC2 | Vasopressin V1a receptor (Homo sapiens) | > 10 µM |

Request: AC50, test system Vasopressin V1a receptor (Homo sapiens), entry C=C1c2cccc(O)c2C(=O)C2=C(O)[C@]3(O)C(=O)C(C(N)=O)=C(O)[C@@H](N(C)C)[C@@H]3[C@@H](O)[C@H]12 > 30 µM

For the record CC[C@H](C)C(=O)O[C@H]1C[C@@H](C)C=C2C=C[C@H](C)[C@H](CC[C@@H]3C[C@@H](O)CC(=O)O3)[C@H]21 , what value of AC50 is listed for Vasopressin V1a receptor (Homo sapiens)? > 10 µM

// lookup AC50 | system=Vasopressin V1a receptor (Homo sapiens) | key= CC(C)(Oc1ccc(CCNC(=O)c2ccc(Cl)cc2)cc1)C(=O)O [BEZAFIBRATE] > 10 µM

// map CCCCCCCN(CC)CCCC(O)c1ccc(NS(C)(=O)=O)cc1 (stereo not drawn) [IBUTILIDE] to recorded AC50 (system: Vasopressin V1a receptor (Homo sapiens)) > 30 µM

Request - read-out AC50 | tested on Vasopressin V1a receptor (Homo sapiens) | compound CO/N=C(\C(=O)N[C@@H]1C(=O)N2C(C(=O)O)=CCS[C@H]12)c1csc(N)n1 > 30 µM

----------
Recorded AC50 values (Motilin receptor (Homo sapiens)) are given below.

Reference set (5 entries):
| molecule | AC50 |
| --- | --- |
| CC(C(=O)O)c1ccc2c(c1)CC(=O)c1ccccc1S2 (stereo not given) | > 30 µM |
| C/C=C(/C(=C/C)c1ccc(O)cc1)c1ccc(O)cc1 | > 10 µM |
| CC(C)c1cccc(C(C)C)c1O | > 30 µM |
| CN1Cc2c(N)cccc2C(c2ccccc2)C1 (stereo not given) | > 30 µM |
| CCc1cc2c(s1)-n1c(C)nnc1CN=C2c1ccccc1Cl | > 30 µM |

Provide value of AC50 for this record tested with Motilin receptor (Homo sapiens): CNCCc1ccc(OC(=O)C(C)C)c(OC(=O)C(C)C)c1 > 30 µM

Test system Motilin receptor (Homo sapiens); read-out AC50; what value for CN(CCOc1ccc(CC2SC(=O)NC2=O)cc1)c1ccccn1 (stereo not given) ? > 30 µM

Query for Motilin receptor (Homo sapiens): what AC50 does the record show for O=C1Nc2ccc(Cl)cc2C(c2ccccc2Cl)=NC1O (stereo not given) ? > 10 µM

Form field - read-out: AC50; system: Motilin receptor (Homo sapiens); submitted item: CC=CC1=C(C(=O)O)N2C(=O)[C@@H](NC(=O)[C@H](N)c3ccc(O)cc3)[C@H]2SC1 > 30 µM

Form entry - test system: Motilin receptor (Homo sapiens); read-out: AC50; molecule: CCOC(=O)C(C)(C)Oc1ccc(Cl)cc1 [CLOFIBRATE] > 10 µM

----------
Biological target: D(3) dopamine receptor (Homo sapiens); note: assay procedure not described here
Sequence (P35462 whole entry): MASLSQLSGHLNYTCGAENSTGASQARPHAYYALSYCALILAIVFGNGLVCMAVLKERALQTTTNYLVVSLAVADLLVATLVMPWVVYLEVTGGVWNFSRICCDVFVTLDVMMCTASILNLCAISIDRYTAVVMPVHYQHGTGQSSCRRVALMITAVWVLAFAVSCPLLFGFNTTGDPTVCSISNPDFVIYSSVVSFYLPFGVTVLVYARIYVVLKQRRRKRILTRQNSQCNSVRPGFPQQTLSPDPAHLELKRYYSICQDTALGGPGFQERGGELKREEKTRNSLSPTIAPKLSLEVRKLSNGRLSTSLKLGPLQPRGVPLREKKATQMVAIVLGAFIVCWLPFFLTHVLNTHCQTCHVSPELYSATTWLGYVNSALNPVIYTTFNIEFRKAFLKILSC
# AC50 per entry

| compound | AC50 |
| --- | --- |
| CCC(=O)O[C@]1(C(=O)CCl)[C@@H](C)C[C@H]2[C@@H]3CCC4=CC(=O)C=C[C@]4(C)[C@@]3(F)[C@@H](O)C[C@@]21C [CLOBETASOL PROPIONATE] | > 30 µM |
| COC(=O)[C@H]1[C@H]2C[C@@H]3c4[nH]c5cc(OC)ccc5c4CCN3C[C@H]2C[C@@H](OC(=O)c2cc(OC)c(OC)c(OC)c2)[C@@H]1OC | > 30 µM |
| CCOC(=O)c1ncn2c1CN(C)C(=O)c1cc(F)ccc1-2 | > 30 µM |
| CN(CCOc1ccc(CC2SC(=O)NC2=O)cc1)c1ccccn1 (stereo not given) | > 30 µM |

I have this compound here, CN[C@]1(c2ccccc2Cl)CCCCC1=O , and I need its recorded AC50. > 30 µM

Sample Cc1ccnc2c1NC(=O)c1cccnc1N2C1CC1 — what was its AC50? > 10 µM

# lookup: AC50 of CNCCc1ccc(OC(=O)C(C)C)c(OC(=O)C(C)C)c1 0.767 µM

Bench note: what AC50 did CC(CN(C)C)C(C)(O)Cc1ccc(Cl)cc1 (stereo not given) show? > 30 µM

Reported AC50 for CC(C)(Oc1ccc(CCNC(=O)c2ccc(Cl)cc2)cc1)C(=O)O [BEZAFIBRATE] : what is it? > 30 µM

Entry CC(C)NC(=N)NC(=N)Nc1ccc(Cl)c(Cl)c1 has what AC50? > 30 µM

Recorded AC50 of CCOC(=O)C1=C(C)NC(C)=C(C(=O)OCC)C1c1ccccc1/C=C/C(=O)OC(C)(C)C , please. > 30 µM

----------
Target or system Vasopressin V2 receptor (Homo sapiens, UniProt P30518): recorded AC50 listed per item. Note: assay procedure not described here.

Observe how each entry below is paired with its result.
| compound | tested.on | AC50 |
| --- | --- | --- |
| CCC[C@@H]1C[C@@H](C(=O)N[C@@H]([C@H]2O[C@H](SC)[C@H](O)[C@@H](O)[C@H]2O)[C@@H](C)O)N(C)C1 | Vasopressin V2 receptor (Homo sapiens, UniProt P30518) | > 10 µM |
| C[C@]12C/C(=C/O)C(=O)C[C@@H]1CC[C@@H]1[C@@H]2CC[C@@]2(C)[C@H]1CC[C@]2(C)O | Vasopressin V2 receptor (Homo sapiens, UniProt P30518) | > 30 µM |
| Cn1c(=O)c2c(ncn2CCOC(=O)C(C)(C)Oc2ccc(Cl)cc2)n(C)c1=O [THEOFIBRATE] | Vasopressin V2 receptor (Homo sapiens, UniProt P30518) | > 30 µM |
| NC(=O)NC(=O)Cc1ccccc1 [PHENACEMIDE] | Vasopressin V2 receptor (Homo sapiens, UniProt P30518) | > 10 µM |
| CC(=O)Nc1ccc(CC(=O)O)cc1 | Vasopressin V2 receptor (Homo sapiens, UniProt P30518) | > 30 µM |
| CCCN1CCCC[C@H]1C(=O)Nc1c(C)cccc1C | Vasopressin V2 receptor (Homo sapiens, UniProt P30518) | > 30 µM |
| CCOC(=O)C(C)(C)Oc1ccc(Cl)cc1 [CLOFIBRATE] | Vasopressin V2 receptor (Homo sapiens, UniProt P30518) | > 30 µM |
| CNC(=C[N+](=O)[O-])NCCSCc1csc(CN(C)C)n1 | Vasopressin V2 receptor (Homo sapiens, UniProt P30518) | > 10 µM |

AC50 for CC(Cc1cccc(C(F)(F)F)c1)NCCOC(=O)c1ccccc1 (configuration not stated) ? > 30 µM

Find the recorded AC50 belonging to C[C@@H]1C[C@H]2[C@@H]3CCC4=CC(=O)C=C[C@]4(C)[C@@]3(F)[C@@H](O)C[C@]2(C)[C@@]1(O)C(=O)CO and report it. > 30 µM

Can you look up the measured AC50 of Oc1ccc(CCNCCCCCCNCCc2ccccc2)cc1O for me? > 30 µM

Query: AC50; subject: CC(CN1c2ccccc2Sc2ccccc21)N(C)C (configuration not stated) > 30 µM

AC50 for CN(C)C/C=C/C(=O)Nc1cc2c(Nc3ccc(F)c(Cl)c3)ncnc2cc1O[C@H]1CCOC1 ? > 30 µM

Requested field: AC50. Item: CC(C)(C)NCC(O)c1ccccc1Cl (configuration not stated) > 30 µM

----------
Target: Beta-1 adrenergic receptor (Homo sapiens, UniProt P08588); note: assay procedure not described here
Sequence (P08588 whole entry): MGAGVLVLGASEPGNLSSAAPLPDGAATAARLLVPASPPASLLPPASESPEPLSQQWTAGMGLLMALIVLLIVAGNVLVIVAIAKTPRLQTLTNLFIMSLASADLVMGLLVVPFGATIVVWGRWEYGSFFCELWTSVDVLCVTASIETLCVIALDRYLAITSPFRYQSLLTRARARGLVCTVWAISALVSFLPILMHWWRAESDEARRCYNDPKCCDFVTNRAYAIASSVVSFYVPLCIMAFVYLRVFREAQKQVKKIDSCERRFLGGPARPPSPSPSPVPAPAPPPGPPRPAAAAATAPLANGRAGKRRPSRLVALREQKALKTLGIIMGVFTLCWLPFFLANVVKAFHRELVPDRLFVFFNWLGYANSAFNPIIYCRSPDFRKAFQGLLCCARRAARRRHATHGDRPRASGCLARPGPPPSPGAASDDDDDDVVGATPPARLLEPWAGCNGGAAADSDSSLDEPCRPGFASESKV
Assay type: functional
value.type: AC50

| compound | tested.on | AC50 |
| --- | --- | --- |
| CCN1CC(CCN2CCOCC2)C(c2ccccc2)(c2ccccc2)C1=O (centres undefined) | Beta-1 adrenergic receptor (Homo sapiens, UniProt P08588) | > 30 µM |

Item CN[C@]1(c2ccccc2Cl)CCCCC1=O with Beta-1 adrenergic receptor (Homo sapiens, UniProt P08588) - AC50? > 30 µM

Entry O=C1c2cccc3c2[C@H](CCC3)CN1[C@@H]1CN2CCC1CC2 , system Beta-1 adrenergic receptor (Homo sapiens, UniProt P08588): what AC50 was measured? > 30 µM

Hi! What's the reported AC50 for CC(C)[C@@H](C)/C=C/[C@@H](C)[C@H]1CC[C@H]2/C(=C/C=C3\C[C@@H](O)CC[C@@H]3C)CCC[C@]12C [DIHYDROTACHYSTEROL] on Beta-1 adrenergic receptor (Homo sapiens, UniProt P08588)? > 10 µM

Missing value: AC50, Beta-1 adrenergic receptor (Homo sapiens, UniProt P08588), entry NC(=O)NC(=O)Cc1ccccc1 [PHENACEMIDE] . Fill in? > 10 µM

Reported AC50 for Beta-1 adrenergic receptor (Homo sapiens, UniProt P08588), given CCCN1CC(NS(=O)(=O)N(CC)CC)CC2Cc3c(O)cccc3CC21 (centres undefined) [QUINAGOLIDE] ? > 30 µM

Observed AC50 on Beta-1 adrenergic receptor (Homo sapiens, UniProt P08588) for O=C(O)COCCN1CCN(C(c2ccccc2)c2ccc(Cl)cc2)CC1 (centres undefined) , please. > 10 µM

Please state recorded AC50 (tested on Beta-1 adrenergic receptor (Homo sapiens, UniProt P08588)) of Clc1ccc(CCC(Cn2ccnc2)Sc2c(Cl)cccc2Cl)cc1 (centres undefined) > 30 µM

Beta-1 adrenergic receptor (Homo sapiens, UniProt P08588) / AC50 / O=C1Nc2ccc(Cl)cc2C(c2ccccc2Cl)=NC1O (centres undefined) : value? > 10 µM
